Where these numbers come from: a collection of fitness landscapes (doi:10.1016/j.celrep.2020.107928)

B1: Caulobacter ParB omega fusion; a variant is named by its letters at X, in order, B8GW30 (parent)
chain: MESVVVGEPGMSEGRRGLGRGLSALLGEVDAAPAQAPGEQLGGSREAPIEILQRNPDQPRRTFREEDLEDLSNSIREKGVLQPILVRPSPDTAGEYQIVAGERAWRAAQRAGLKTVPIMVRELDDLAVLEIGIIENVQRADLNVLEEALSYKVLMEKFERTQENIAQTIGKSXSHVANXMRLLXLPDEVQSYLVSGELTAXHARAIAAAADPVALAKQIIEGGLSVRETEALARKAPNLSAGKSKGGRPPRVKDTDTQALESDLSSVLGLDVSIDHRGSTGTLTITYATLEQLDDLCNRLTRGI

Variants of: B1
Assay Explanation: one-hybrid fitness for binding parS DNA (scaled: cognate 1, non-cognate 0); higher = stronger binding
Condition Details: with parS DNA site
The full ranking holds about 81,000 sequences; the median of “one-hybrid fitness for binding parS DNA” is about -0.17, and the highest 2% start at about 0.51. The entries come from a sample that favours the highest values as a whole.
Value Kind: one-hybrid fitness for binding parS DNA

| Mutant Code | Value Kind | Readout Value |
| --- | --- | --- |
| PPDT | one-hybrid fitness for binding parS DNA | ≤ 0.2 |
| TYPS | one-hybrid fitness for binding parS DNA | ≤ 0.2 |
| VFSS | one-hybrid fitness for binding parS DNA | ≤ 0.2 |
| RRMM | one-hybrid fitness for binding parS DNA | ≤ 0.2 |
| NYLC | one-hybrid fitness for binding parS DNA | ≤ 0.2 |
| HQDG | one-hybrid fitness for binding parS DNA | ≤ 0.2 |
| CRLW | one-hybrid fitness for binding parS DNA | ≤ 0.2 |
| RSMG | one-hybrid fitness for binding parS DNA | 0.962 |
| CWHG | one-hybrid fitness for binding parS DNA | 0.244 |
| TFRT | one-hybrid fitness for binding parS DNA | ≤ 0.2 |
| RSMR | one-hybrid fitness for binding parS DNA | ≤ 0.2 |
